procedure.summary: aggregation and purification amounts of deglycosylated antibodies, before and after φ
Type: physicochemical
assay.conditions: based on 100 ml culture
value.type: Fraction3, After φ (mg)
Supply the numeric figure in mg, leaving out any unit text.

Form field: reported Fraction3, After φ of Deglyco-C2: deglycosylated clone 1 IgG; light chain CDR1 TGSSSNIGATAVT (SEQ ID NO: 3) (antibody, V domains shown) VH: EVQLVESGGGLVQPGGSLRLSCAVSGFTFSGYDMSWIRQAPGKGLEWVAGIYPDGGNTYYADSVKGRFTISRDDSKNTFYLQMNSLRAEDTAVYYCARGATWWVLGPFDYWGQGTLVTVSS VL: DIQLTQSPSSLSASVGDRVTITCTGSSSNIGATAVTWYQQKPGKAPKLLIYADSHRPSGVPSRFSGSGSGTDFTLTISSLQPEDFATYYCGAWDDSLSGYVFGQGTKVEIKR
1.110
